Values compiled from the Human Domainome abundance scans (Beltran et al. 2025).

B1: Pituitary-specific positive transcription factor 1, residues 130 to 198; numbered along this chain, P28069 (parent)
chain: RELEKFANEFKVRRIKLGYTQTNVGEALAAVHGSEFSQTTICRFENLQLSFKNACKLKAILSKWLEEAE

Variants of: B1
assayRemarks: abundance fitness (aPCA) (normalised: wild type 0, dead -1); higher = more abundant; growth selection in yeast, the domain comes from the species named
testParameters: Homo sapiens

{"variantString": "N8A", "abundance fitness": 0.133}
{"variantString": "Y19G", "abundance fitness": -0.501}
{"variantString": "K5H", "abundance fitness": -0.135}
{"variantString": "A7S", "abundance fitness": -0.425}
{"variantString": "E4C", "abundance fitness": -0.552}
{"variantString": "S37N", "abundance fitness": 0.117}
{"variantString": "C55V", "abundance fitness": 0.15}
{"variantString": "I15D", "abundance fitness": -0.89}
{"variantString": "C42W", "abundance fitness": -0.101}
{"variantString": "E45F", "abundance fitness": -0.878}
{"variantString": "N53P", "abundance fitness": -0.115}
